# credit: ChEMBL document CHEMBL3286373

- Experimental system: Cannabinoid CB1 receptor/orexin receptor 1 complex (Homo sapiens) (UniProt P21554+O43613)
- Conditions: RD-HGA16
Observation type: Ke (µM)

(a) COc1cc2c(cc1OC)C(Cc1ccc(OC(=O)CCCCCCN(C)CCCCCCCCCCNC(=O)c3nn(-c4ccc(Cl)cc4Cl)c(-c4ccc(Cl)cc4)c3C)c(OC)c1)N(CC(=O)NCc1ccccc1)CC2 (stereo not given)
(b) Cc1nc2ccc(NC(=O)Nc3ccnc4cccnc34)cc2o1
Query: Which numeric Ke is bigger, that of a or that of b ? Please identify the chosen entry by its label.
Result: a
(a: 5.9 µM, b: 0.032 µM)
